System: prostatic - PC-3
PROTOCOL NOTES: Antiproliferative assay (MTT) PC-3
CONDITION SUMMARY: PC-3, 50 µM
ASSAY ENDPOINT: Average of Relative viability of cells (%)

MOLECULE | VALUE
COc1ccc(/C=C/C(=O)c2sc(SCC(=O)Nc3nc(-c4ccc(C)cc4)cs3)nc2C)cc1 [Compound 10o] | 23.7%
Cc1ccc(/C=C/C(=O)c2sc(SCC(=O)Nc3nccs3)nc2C)cc1 [Compound 13d] | 19.4%
Cc1ccc(-c2csc(NC(=O)CSc3nc(C)c(C(=O)/C=C/c4ccc(F)cc4)s3)n2)cc1 [Compound 10m] | 46.7%
Cc1nc(SCC(=O)Nc2nc(-c3ccc(Cl)cc3)cs2)sc1C(=O)/C=C/c1ccccc1 [Compound 10f] | 32.3%
Cc1nc(SCC(=O)Nc2nccs2)sc1C(=O)/C=C/c1ccc(F)cc1 [Compound 13c] | 42.1%
Cc1nc(SCC(=O)Nc2nccs2)sc1C(=O)/C=C/c1ccc(Cl)cc1 [Compound 13b] | 25.3%
Cc1ccc(/C=C/C(=O)c2sc(SCC(=O)Nc3nc(-c4ccccc4)cs3)nc2C)cc1 [Compound 10d] | 27.9%
Cc1nc(SCC(=O)Nc2nc(-c3ccc(Cl)cc3)cs2)sc1C(=O)/C=C/c1ccc(F)cc1 [Compound 10h] | 55.8%

---

Test system: tubulin
PROTOCOL NOTES: Tubulin polymerization inhibition assay (Cytoskeleton kit)
CONDITION SUMMARY: conc 10 (unit not given), 30 min, codes 522-537 run
Tub. enzyme inhibition assay %inhibition values by entry

COMPOUND | Tub. enzyme inhibition assay %inhibition / %
COc1ccc(/C=C/C(=O)c2sc(SCC(=O)Nc3nc(-c4ccc(Cl)cc4)cs3)nc2C)cc1 [Compound 10j] | 45.7
Cc1ccc(-c2csc(NC(=O)CSc3nc(C)c(C(=O)/C=C/c4ccc(F)cc4)s3)n2)cc1 [Compound 10m] | 58
Cc1ccc(/C=C/C(=O)c2sc(SCC(=O)Nc3nccs3)nc2C)cc1 [Compound 13d] | 68.5
Cc1ccc(/C=C/C(=O)c2sc(SCC(=O)Nc3nc(-c4ccc(C)cc4)cs3)nc2C)cc1 [Compound 10n] | 49.9

---

List of Tub K.Activity values.
System: tubulin
PROTOCOL NOTES: Tubulin polymerization inhibition assay (Cytoskeleton kit)
CONDITION SUMMARY: conc 50 (unit not given), EC = 120, YB-EGY run
ASSAY ENDPOINT: Tub K.Activity

COMPOUND | VALUE
COc1ccc(/C=C/C(=O)c2sc(SCC(=O)Nc3nccs3)nc2C)cc1 [Compound 13e] | 69.965
Cc1nc(SCC(=O)Nc2nccs2)sc1C(=O)/C=C/c1ccc(F)cc1 [Compound 13c] | 34.549
Cc1nc(SCC(=O)Nc2nc(-c3ccc(Cl)cc3)cs2)sc1C(=O)/C=C/c1ccc(F)cc1 [Compound 10h] | 41.405
COc1ccc(/C=C/C(=O)c2sc(SCC(=O)Nc3nc(-c4ccc(C)cc4)cs3)nc2C)cc1 [Compound 10o] | 28.504
Cc1nc(SCC(=O)Nc2nc(-c3ccccc3)cs2)sc1C(=O)/C=C/c1ccc(F)cc1 [Compound 10c] | 56.999
Cc1nc(SCC(=O)Nc2nc(-c3ccccc3)cs2)sc1C(=O)/C=C/c1ccccc1 [Compound 10a] | 25.374
Cc1nc(SCC(=O)Nc2nc(-c3ccccc3)cs2)sc1C(=O)/C=C/c1ccc(Cl)cc1 [Compound 10b] | 42.629
Cc1nc(SCC(=O)Nc2nccs2)sc1C(=O)/C=C/c1ccc(Cl)cc1 [Compound 13b] | 27.751
Cc1nc(SCC(=O)Nc2nccs2)sc1C(=O)/C=C/c1ccccc1 [Compound 13a] | 45.076
Cc1ccc(/C=C/C(=O)c2sc(SCC(=O)Nc3nc(-c4ccccc4)cs3)nc2C)cc1 [Compound 10d] | 33.903

---

System: - MDAMB-231
PROTOCOL NOTES: Antiproliferative assay (MTT) MDAMB-231
CONDITION SUMMARY: MDAMB-231, 50 µM
The entries below come with measured Average of Relative viability of cells (%) values attached.
ASSAY ENDPOINT: Average of Relative viability of cells (%)

COMPOUND | VALUE
Cc1ccc(/C=C/C(=O)c2sc(SCC(=O)Nc3nccs3)nc2C)cc1 [Compound 13d] | 11.3%
Cc1nc(SCC(=O)Nc2nccs2)sc1C(=O)/C=C/c1ccc(F)cc1 [Compound 13c] | 38.9%
Cc1nc(SCC(=O)Nc2nc(-c3ccc(Cl)cc3)cs2)sc1C(=O)/C=C/c1ccccc1 [Compound 10f] | 17.8%
Cc1ccc(-c2csc(NC(=O)CSc3nc(C)c(C(=O)/C=C/c4ccc(F)cc4)s3)n2)cc1 [Compound 10m] | 32.3%

---

# maps each entry to its Tub. enzyme inhibition assay K. Activity
Test system: tubulin
PROTOCOL NOTES: Tubulin polymerization inhibition assay (Cytoskeleton kit);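 further: Cell-free tubulin polymerization read by fluorescent reporter enhancement over a 30 min reaction, with the compound-free kit control taken as 100% activity and inhibition relative to it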
CONDITION SUMMARY: conc 0.01 (unit not given), control = 120, codes 522-537 run

COMPOUND | Tub. enzyme inhibition assay K. Activity
Cc1ccc(-c2csc(NC(=O)CSc3nc(C)c(C(=O)/C=C/c4ccc(F)cc4)s3)n2)cc1 [Compound 10m] | 112.84
Cc1ccc(-c2csc(NC(=O)CSc3nc(C)c(C(=O)/C=C/c4ccccc4)s3)n2)cc1 [Compound 10k] | 119.66
COc1ccc(/C=C/C(=O)c2sc(SCC(=O)Nc3nc(-c4ccccc4)cs3)nc2C)cc1 [Compound 10e] | 116.92
Cc1nc(SCC(=O)Nc2nc(-c3ccc(Cl)cc3)cs2)sc1C(=O)/C=C/c1ccccc1 [Compound 10f] | 113.72
Cc1ccc(-c2csc(NC(=O)CSc3nc(C)c(C(=O)/C=C/c4ccc(Cl)cc4)s3)n2)cc1 [Compound 10l] | 117.78
Cc1nc(SCC(=O)Nc2nc(-c3ccc(Cl)cc3)cs2)sc1C(=O)/C=C/c1ccc(Cl)cc1 [Compound 10g] | 119.22
Cc1ccc(/C=C/C(=O)c2sc(SCC(=O)Nc3nc(-c4ccc(Cl)cc4)cs3)nc2C)cc1 [Compound 10i] | 118.18

---

System: colon - HCT-116
PROTOCOL NOTES: Antiproliferative assay (MTT) HCT-116
CONDITION SUMMARY: HCT-116, 25 µM
Listed here are compounds together with their documented Average of Relative viability of cells (%).
ASSAY ENDPOINT: Average of Relative viability of cells (%)

COMPOUND | VALUE
Cc1ccc(-c2csc(NC(=O)CSc3nc(C)c(C(=O)/C=C/c4ccc(F)cc4)s3)n2)cc1 [Compound 10m] | 54.1%
Cc1nc(SCC(=O)Nc2nc(-c3ccc(Cl)cc3)cs2)sc1C(=O)/C=C/c1ccc(F)cc1 [Compound 10h] | 52.8%
Cc1ccc(/C=C/C(=O)c2sc(SCC(=O)Nc3nccs3)nc2C)cc1 [Compound 13d] | 26.5%
Cc1nc(SCC(=O)Nc2nccs2)sc1C(=O)/C=C/c1ccc(Cl)cc1 [Compound 13b] | 39.5%
Cc1nc(SCC(=O)Nc2nc(-c3ccc(Cl)cc3)cs2)sc1C(=O)/C=C/c1ccccc1 [Compound 10f] | 50.5%
Cc1nc(SCC(=O)Nc2nccs2)sc1C(=O)/C=C/c1ccc(F)cc1 [Compound 13c] | 42.2%
Cc1ccc(/C=C/C(=O)c2sc(SCC(=O)Nc3nc(-c4ccccc4)cs3)nc2C)cc1 [Compound 10d] | 41.9%
COc1ccc(/C=C/C(=O)c2sc(SCC(=O)Nc3nc(-c4ccc(C)cc4)cs3)nc2C)cc1 [Compound 10o] | 22.7%

---

Tested on: breast - MCF-7
PROTOCOL NOTES: Antiproliferative assay (MTT) MCF-7
CONDITION SUMMARY: MCF-7, 50 µM
ASSAY ENDPOINT: Average of Relative viability of cells (%)

COMPOUND | SYSTEM | VALUE
Cc1ccc(-c2csc(NC(=O)CSc3nc(C)c(C(=O)/C=C/c4ccc(F)cc4)s3)n2)cc1 [Compound 10m] | breast - MCF-7 | 28.4
Cc1nc(SCC(=O)Nc2nc(-c3ccc(Cl)cc3)cs2)sc1C(=O)/C=C/c1ccc(F)cc1 [Compound 10h] | breast - MCF-7 | 37.1
Cc1ccc(/C=C/C(=O)c2sc(SCC(=O)Nc3nccs3)nc2C)cc1 [Compound 13d] | breast - MCF-7 | 17.1
COc1ccc(/C=C/C(=O)c2sc(SCC(=O)Nc3nc(-c4ccc(C)cc4)cs3)nc2C)cc1 [Compound 10o] | breast - MCF-7 | 11.9
Cc1nc(SCC(=O)Nc2nccs2)sc1C(=O)/C=C/c1ccc(Cl)cc1 [Compound 13b] | breast - MCF-7 | 14.7
Cc1nc(SCC(=O)Nc2nc(-c3ccc(Cl)cc3)cs2)sc1C(=O)/C=C/c1ccccc1 [Compound 10f] | breast - MCF-7 | 27.4
Cc1ccc(/C=C/C(=O)c2sc(SCC(=O)Nc3nc(-c4ccccc4)cs3)nc2C)cc1 [Compound 10d] | breast - MCF-7 | 20.4
Cc1nc(SCC(=O)Nc2nccs2)sc1C(=O)/C=C/c1ccc(F)cc1 [Compound 13c] | breast - MCF-7 | 36.7
